Reported Kd values follow for various binders
# ASSAYED TARGET: recombinant Pseudomonas aeruginosa PcrV, full-length (PAO), His-tagged (Pseudomonas aeruginosa)
# ASSAY SUMMARY: BLI
Supply the numeric figure in nM, leaving out any unit text.

[[record]]
binder = "13-42 mAb (antibody, V domains shown) VH: EVQLLESGGGLVQPGGSLRLSCTASGFTFSDYPMSWVRQAPGKGLDWVSGISESGGSTNDADSVKGRFSTSRDNSKSTLYLDMNSLRAEDTAIYYCAKGRFCTNSSCFFRAVYGMDVWGQGTAVTVSS VL: DIQLTQSPSSLSASVGDRVTITCRASQGISSYLAWYQQKPGKAPKLLIYAASTLQSGVPSRFSGSGSGTDFTLTISSLQPEDFATYYCQQLSSYPLSFGGGTKVEIK"
observed = 0.414


Note: attention shifts to another entry.
Prompt line: Can you look up the measured Kd of 2B1 (antibody, V domains shown, also called optimized anti-PcrV mAb clone 2B1) VH: EVQLLESGGGLVQPGGSLRLSCTASGFTFSSYPMSWVRQAPGKGLDWVSGISESGGSTNYADSVKGRFSTSRDNSKSTLYLDMNSLRAEDTAIYYCAKGRFSGESHHFFRAVYGMDVWGQGTAVTVSS VL: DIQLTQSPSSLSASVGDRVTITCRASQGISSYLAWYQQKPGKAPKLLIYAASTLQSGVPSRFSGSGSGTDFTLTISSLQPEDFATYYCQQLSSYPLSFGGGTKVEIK for me?
Response line: 0.194
